# MEASURED TARGET: T1, human OX40-FC-biotin (human OX40 recombinant protein with Fc tag, Acro Biosystems OX40-H5255, labeled with … (human, UniProt P43489 29-216, labeled with biotin (site not stated)))
# T1 construct: range 29-216; Bought (Acro Biosystems OX40-H5255; printed once as OXO-H5255), expressed in HEK293; also called human Bio-OX40-FC; not shown: Fc tag of the bought protein
# T1 sequence (looked up): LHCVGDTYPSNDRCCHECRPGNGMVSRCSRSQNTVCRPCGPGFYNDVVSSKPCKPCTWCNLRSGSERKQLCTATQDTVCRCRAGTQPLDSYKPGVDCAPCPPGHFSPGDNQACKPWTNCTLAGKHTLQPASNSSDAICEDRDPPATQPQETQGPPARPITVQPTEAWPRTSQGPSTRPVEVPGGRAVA
# ASSAY TEXT: capture ELISA, biotin-OX40-Fc
Provide the recorded EC50 for the entries that follow.
Could you give me the number in µg/mL? Just the number is fine.

Prompt: Consider the binder humanized antibody 2G3-hu7 (antibody, human IgG1, V domains shown, hu2G3 VH1.2 + hu2G3 VL2) VH: QVQLQESGPGLVKPSQTLSLTCTVSGFSLSRYSVHWVRQPPGKGLEWIGMIWDGGNTDYAAPVKGRFTISRDDSKNTLYLQMNSLKTEDTAVYYCARNPLYFSYAMDYWGQGTLVTVSS VL: DIQMTQSPSSLSASVGDRVTITCRASQDISNYLNWYQQKPGKAPKLLIYYTSRLQSGVPSRFSGSGSGTDYTLTISSLQPEDFATYYCQQVNTFPFTFGQGTKLEIK and give its recorded EC50.
Response: 0.743

Prompt: Fill in reported EC50 for this entry: humanized antibody hu4B5-V1 (antibody, human IgG1, V domains shown, hu4B5 VH0 + hu4B5 VL0) VH: QVQLQESGPGLVKPSETLSLTCTVSGFSLTSYGLHWIRQPPGKGLEWIGVIWSGGSTDYNAAFISRVTISVDTSKNQFSLKLSSVTAADTAVYYCAREEYDVWGQGTTVTVSS VL: DIQMTQSPSSLSASVGDRVTITCRASQDISNYLNWYQQKPGKVPKLLIYYTSRLHSGVPSRFSGSGSGTDFTLTISSLQPEDVATYYCQQGNTLPWTFGGGTKVEIK
Response: 0.59

Prompt: Fill in EC50 for record humanized antibody hu4B5-V7 (antibody, human IgG1, kappa, V domains shown) VH: QVQLKESGPGLVKPSETLSLTCTVSGFSLTSYGLHWFRQPPGKGLEWIGVIWSGGSTDYNAAFISRVTISKEDSKSQVSLKLSSVTAADTAVYYCAREEYDVWGQGTTVTVSS VL: DIQMTQSPSSLSASVGDRVTITCRASQDISNYLNWYQQKPGGVPKLLIYYTSRLHSGVPSRFSGSGSGTDYTLTISSLQPEDVATYYCQQGNTLPWTFGGGTKVEIKR
Response: 0.254
